- Target Under Test: BCL-XL (Homo sapiens, UniProt Q07817)
- Construct: endogenous in cells; host or cells: MOLT-4
- Sequence (Q07817 whole entry): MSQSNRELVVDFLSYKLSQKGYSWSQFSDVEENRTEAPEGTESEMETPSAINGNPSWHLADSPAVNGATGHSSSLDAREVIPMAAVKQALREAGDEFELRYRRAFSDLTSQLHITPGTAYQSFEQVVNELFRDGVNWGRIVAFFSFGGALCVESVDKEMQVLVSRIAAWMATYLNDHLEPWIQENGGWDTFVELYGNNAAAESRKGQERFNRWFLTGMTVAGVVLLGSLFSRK
- Assay Text: BCL-XL degradation assay, western blot in MOLT-4 cells, 16 h
- Assay type: cell-based
- Test Parameters: western blot, MOLT-4 cells, 16 h; read-out: Bcl-xL WB in MOLT-4 degradation 16 h: Mean external-Abs DC50
Recorded measurements of DC50, one per entry
Result Type: DC50

| Compound | Reported Value |
| --- | --- |
| Cc1ncsc1-c1ccc(CNC(=O)[C@@H]2C[C@@H](O)CN2C(=O)[C@@H](NC(=O)C2(F)CC2)C(C)(C)C)c(OCCCCCCCC(=O)N(C)CC#Cc2cccc(F)c2OCCCc2sc(N3CCc4cccc(C(=O)Nc5nc6ccccc6s5)c4C3)nc2C(=O)O)c1 [I-20] | 100 to 500 nM |
| Cc1ncsc1-c1ccc(CNC(=O)[C@@H]2C[C@@H](O)CN2C(=O)[C@@H](NC(=O)C2(F)CC2)C(C)(C)C)c(OCCCCCC(=O)N(C)CC#Cc2ccc(OCCCc3sc(N4CCc5cccc(C(=O)Nc6nc7ccccc7s6)c5C4)nc3C(=O)O)c(F)c2)c1 [I-7] | 500 to 1000 nM |

---

Recorded measurements of DC50, one per entry
- Target Under Test: BCL-XL (Homo sapiens)
- Construct: endogenous in cells; host or cells: MOLT-4
- Assay Text: Bcl-xL ELISA degradation in MOLT-4 cells, 6 h
- Format: cell-based
- Test Parameters: read-out: Bcl-xL ELISA in MOLT-4 degradation 6 h: Mean external-Abs DC50

| Compound | DC50 |
| --- | --- |
| C#Cc1ccc(CNC(=O)[C@@H]2C[C@@H](O)CN2C(=O)[C@@H](NC(=O)CCCCCS(=O)(=O)NC(=O)c2nc(N3CCc4cccc(C(=O)Nc5nc6cccnc6s5)c4C3)ccc2-c2cnn(CC3CCCC3)c2C)C(C)(C)C)cc1 [I-445] | 10 to 100 nM |
| C#Cc1ccc([C@H](C)NC(=O)[C@@H]2C[C@@H](O)CN2C(=O)[C@@H](NC(=O)CCCCCS(=O)(=O)NC(=O)c2nc(N(C)c3cc(C)c(Nc4nc5ccccc5s4)nn3)ccc2-c2cnn(CC34CC5CC(CC(C5)C3)C4)c2C)C(C)(C)C)c(O)c1 [I-475] | < 10 nM |
| Cc1ncsc1-c1ccc([C@H](C)NC(=O)[C@@H]2C[C@@H](O)CN2C(=O)[C@@H](NC(=O)CCCCCCC(=O)N2CCN(CC3(C)CCC(c4ccc(Cl)cc4)=C(CN4CCN(c5ccc(C(=O)NS(=O)(=O)c6ccc(N[C@H](CCN7CCOCC7)CSc7ccccc7)c(S(=O)(=O)C(F)(F)F)c6)cc5)CC4)C3)CC2)C(C)(C)C)cc1 (some centres unmarked) [I-395] | 10 to 100 nM |
| Cc1cc(N(C)c2ccc(-c3cnn(CC45CC6CC(CC(C6)C4)C5)c3C)c(C(=O)NS(=O)(=O)CCCCCC(=O)N[C@H](C(=O)N3C[C@H](O)C[C@H]3C(=O)N[C@@H](C)c3ccc(-c4scnc4C)cc3)C(C)(C)C)n2)nnc1Nc1nc2ccccc2s1 [I-356] | < 10 nM |
| Cc1ncsc1-c1ccc([C@H](C)NC(=O)[C@@H]2C[C@@H](O)CN2C(=O)[C@@H](NC(=O)CCC2CCC(S(=O)(=O)NC(=O)c3nc(N4CCc5cccc(C(=O)Nc6nc7ccccc7s6)c5C4)ccc3-c3cnn(CC4CCCCC4)c3C)CC2)C(C)(C)C)cc1 (some centres unmarked) [I-209] | 100 to 500 nM |
| C#Cc1ccc([C@H](CO)NC(=O)[C@@H]2C[C@@H](O)CN2C(=O)[C@@H](NC(=O)CCCCCS(=O)(=O)NC(=O)c2nc(N3CCc4cccc(C(=O)Nc5nc6cccnc6s5)c4C3)ccc2-c2cnn(CC3CCCCC3)c2C)C(C)(C)C)cc1 [I-488] | 10 to 100 nM |
| Cc1ncsc1-c1ccc([C@H](C)NC(=O)[C@@H]2C[C@@H](O)CN2C(=O)[C@@H](NC(=O)C2CCN(c3ccc(S(=O)(=O)NC(=O)c4nc(N5CCc6cccc(C(=O)Nc7nc8ccccc8s7)c6C5)ccc4-c4cnn(CC5CCCCC5)c4C)cc3)CC2)C(C)(C)C)cc1 [I-195] | 10 to 100 nM |
| Cc1ncsc1-c1ccc([C@H](C)NC(=O)[C@@H]2C[C@@H](O)CN2C(=O)[C@@H](NC(=O)CCCCCS(=O)(=O)NC(=O)c2nc(N3CCc4cccc(C(=O)Nc5nc6ccccc6s5)c4C3)ccc2-c2cnn(CC3CCCCC3)c2C)C(C)(C)C)cc1 [I-118] | < 10 nM |

---

- Target Under Test: BCL-XL (Homo sapiens)
- Construct: endogenous in cells; host or cells: MOLT-4
- Assay Text: Bcl-xL ELISA degradation in MOLT-4 cells, 6 h
- Format: cell-based
- Test Parameters: read-out: Bcl-xL ELISA in MOLT-4 degradation 6 h: Mean external-Abs DC50

| Compound | DC50 |
| --- | --- |
| Cc1cc(N(C)c2ccc(-c3cnn(CC4CCCCC4)c3C)c(C(=O)NS(=O)(=O)CCCCCC(=O)N[C@H](C(=O)N3C[C@H](O)C[C@H]3C(=O)N[C@@H](C)c3ccc(-c4scnc4C)cc3)C(C)(C)C)n2)nnc1Nc1nc2cccnc2s1 [I-436] | 500 to 1000 nM |
| Cc1cc(N(C)c2ccc(-c3cnn(CC45CC6CC(CC(C6)C4)C5)c3C)c(C(=O)NS(=O)(=O)CCCCC(=O)N[C@H](C(=O)N3C[C@H](O)C[C@H]3C(=O)N[C@@H](C)c3ccc(-c4scnc4C)cc3)C(C)(C)C)n2)nnc1Nc1nc2ccccc2s1 [I-372] | 10 to 100 nM |

---

Recorded measurements of DC50, one per entry
- Target Under Test: BCL-XL (Homo sapiens, UniProt Q07817)
- Construct: endogenous in cells; host or cells: MOLT-4
- Assay Text: BCL-XL degradation assay, western blot in MOLT-4 cells, 16 h
- Assay type: cell-based
- Test Parameters: western blot, MOLT-4 cells, 16 h; read-out: Bcl-xL WB in MOLT-4 degradation 16 h: Mean external-Abs DC50

| Compound | DC50 |
| --- | --- |
| Cc1ncsc1-c1ccc(CNC(=O)[C@@H]2C[C@@H](O)CN2C(=O)[C@@H](NC(=O)C2(F)CC2)C(C)(C)C)c(OCCC2CCN(CC[C@H](CSc3ccccc3)Nc3ccc(S(=O)(=O)NC(=O)c4ccc(N5CCN(CC6=C(c7ccc(Cl)cc7)CCC(C)(C)C6)CC5)cc4)cc3S(=O)(=O)C(F)(F)F)CC2)c1 | < 10 nM |
| Cc1ncsc1-c1ccc(CNC(=O)[C@@H]2C[C@@H](O)CN2C(=O)C(c2cc(OCCCCCC(=O)N(C)CC#Cc3ccc(OCCCc4sc(N5CCc6cccc(C(=O)Nc7nc8ccccc8s7)c6C5)nc4C(=O)O)c(F)c3)no2)C(C)C)cc1 (stereo partly shown) | 10 to 100 nM |
| Cc1ncsc1-c1ccc([C@H](C)NC(=O)[C@@H]2C[C@@H](O)CN2C(=O)[C@@H](NC(=O)CCc2ccc(N3CCc4cccc(C(=O)Nc5nc6ccccc6s5)c4C3)nc2C(=O)O)C(C)(C)C)cc1 | > 1000 nM |
| Cc1ncsc1-c1ccc([C@H](C)NC(=O)[C@@H]2C[C@@H](O)CN2C(=O)[C@@H](NC(=O)CCCCCCN(C)C(=O)c2nc(N3CCc4cccc(C(=O)Nc5nc6ccccc6s5)c4C3)ccc2-c2cnn(CC3CCCCC3)c2C)C(C)(C)C)cc1 | 10 to 100 nM |

---

Recorded measurements of DC50, one per entry
- Target Under Test: BCL-XL (Homo sapiens)
- Construct: endogenous in cells; host or cells: MOLT-4
- Assay Text: BCL-XL degradation assay, western blot in MOLT-4 cells, 16 h
- Format: cell-based
- Test Parameters: western blot, MOLT-4 cells, 16 h; read-out: Bcl-xL WB in MOLT-4 degradation 16 h: Mean external-Abs DC50
- Method: Compounds treatment: compounds were reconstituted in DMSO to make a stock concentration of 10 mM. MOLT-4 cells were maintained in RPMI-1640+10% FBS+1% Penicillin-Streptomycin. […] Supernatants were collected and protein concentration was measured by BCA assay kit (Solarbio. PC0020-500) following the manufacturer's protocol. […] The western blot images were obtained using Odyssey Imaging System and quantified using Image Studio Lite Ver 5.2 software. […]

| Compound | DC50 |
| --- | --- |
| Cc1ncsc1-c1ccc(CNC(=O)[C@@H]2C[C@@H](O)CN2C(=O)[C@@H](NC(=O)CCOCCOCCOCC#Cc2ccc(OCCCc3sc(N4CCc5cccc(C(=O)Nc6nc7ccccc7s6)c5C4)nc3C(=O)O)cc2)C(C)(C)C)cc1 [I-385] | 10 to 100 nM |
| Cc1ncsc1-c1ccc([C@H](C)NC(=O)[C@@H]2C[C@@H](O)CN2C(=O)[C@@H](NC(=O)CO[C@H]2C[C@H](OCCNC(=O)c3nc(N4CCc5cccc(C(=O)Nc6nc7ccccc7s6)c5C4)ccc3-c3cnn(CC4CCCCC4)c3C)C2)C(C)(C)C)cc1 [I-182] | 10 to 100 nM |
| Cc1ncsc1-c1ccc([C@H](C)NC(=O)[C@@H]2C[C@@H](O)CN2C(=O)[C@@H](c2cc(N3CC(N4CCC(NC(=O)c5nc(N6CCc7cccc(C(=O)Nc8nc9ccccc9s8)c7C6)ccc5-c5cnn(CC6CCCCC6)c5C)CC4)C3)no2)C(C)C)cc1 [I-236] | < 10 nM |
| Cc1ncsc1-c1ccc(CNC(=O)[C@@H]2C[C@@H](O)CN2C(=O)[C@@H](NC(=O)C2(F)CC2)C(C)(C)C)c(OCCN2CCN(CC[C@H](CSc3ccccc3)Nc3ccc(S(=O)(=O)NC(=O)c4ccc(N5CCN(CC6=C(c7ccc(Cl)cc7)CCC(C)(C)C6)CC5)cc4)cc3S(=O)(=O)C(F)(F)F)CC2)c1 [I-394] | < 10 nM |
| Cc1ncsc1-c1ccc([C@H](C)NC(=O)[C@@H]2C[C@@H](O)CN2C(=O)[C@@H](NC(=O)CCCCCC(=O)N2CCN(CC#Cc3ccc(OCCCc4sc(N5CCc6cccc(C(=O)Nc7nc8ccccc8s7)c6C5)nc4C(=O)O)cc3)CC2)C(C)(C)C)cc1 [I-93] | > 1000 nM |
| Cc1ncsc1-c1ccc([C@H](C)NC(=O)[C@@H]2C[C@@H](O)CN2C(=O)[C@@H](NC(=O)CCCCCC(=O)N(C)CC#Cc2cccc(F)c2OCCCc2sc(N3CCc4cccc(C(=O)Nc5nc6ccccc6s5)c4C3)nc2C(=O)O)C(C)(C)C)cc1 [I-16] | 100 to 500 nM |
| CC1(C)CCC(c2ccc(Cl)cc2)=C(CN2CCN(c3ccc(C(=O)NS(=O)(=O)c4ccc(N[C@H](CCN5CCN(C(=O)COc6cc(F)ccc6CNC(=O)[C@@H]6C[C@@H](O)CN6C(=O)[C@@H](NC(=O)C6(F)CC6)C(C)(C)C)CC5)CSc5ccccc5)c(S(=O)(=O)C(F)(F)F)c4)cc3)CC2)C1 [I-98] | > 1000 nM |
| Cc1ncsc1-c1ccc([C@H](C)NC(=O)[C@@H]2C[C@@H](O)CN2C(=O)[C@@H](NC(=O)CCC2(Cn3ncc(-c4ccc(N5CCc6cccc(C(=O)Nc7nc8ccccc8s7)c6C5)nc4C(=O)O)c3C)CCCCC2)C(C)(C)C)cc1 [I-128] | > 1000 nM |
